system: RPMI-8226 leukemia; assay: NCI tumour cell line growth inhibition, 48 h
assayMetric: TGI

compound	TGI
CC(=O)NC1C(OCc2ccccc2)OC(CO)C(O)C1OCC(=O)N[C@@H](C)C(=O)N[C@H](CCC(=O)NCCNc1ccc([N+](=O)[O-])c2[nH]c3ccccc3c(=O)c12)C(N)=O (stereo not given in full)	> 100 µM
COc1cc(-c2nccc3cc4c(cc23)OCO4)cc(OC)c1OC	> 100 µM
CN(C)N=Nc1ccc2[nH]c(=O)[nH]c2c1	> 100 µM
O=C1C(Cl)=C(NCCF)C(=O)c2ncccc21	> 10 µM
C=C(C)C(=O)OC1C[C@H](COC(C)=O)C2CC=C(CO)C2C2OC(=O)C(=C)[C@H]12 (stereo not given in full)	> 100 µM
Cc1cc(N(CCC#N)CCC#N)ccc1/C(N=Nc1ccc([N+](=O)[O-])cc1)=N\NC(=O)c1ccccc1	> 100 µM
Cc1cc(C)nc(NS(=O)(=O)c2ccc(NC(=O)c3cc([N+](=O)[O-])cc([N+](=O)[O-])c3)cc2)n1	> 100 µM
C[C@H]1O[C@@H](C(C)(C)C)OC(=O)[C@@H]1C(OC(=O)c1ccccc1)c1cccc2ccccc12 (stereo not given in full)	> 100 µM

Let me know recorded TGI for NC(N)=N/N=C/c1c(-c2cc([N+](=O)[O-])c(Cl)cc2Cl)nc2n1CCS2 , thanks. > 100 µM

Let me know recorded TGI for Cc1cccc(Nc2cc(Cl)nc(SCC(=O)O)n2)c1C , thanks. > 100 µM
